# reported Dmax; entries follow
- SYSTEM_UNDER_TEST: EGFR-L858R/C797S (H1975-clone #8 cells) (Homo sapiens, UniProt P00533, C797S/L858R)
- Construct: expressed in transfected cells; host or cells: H1975 (endogenous EGFR knocked out, clone #8)
- Sequence (P00533 25-1210 C797S/L858R): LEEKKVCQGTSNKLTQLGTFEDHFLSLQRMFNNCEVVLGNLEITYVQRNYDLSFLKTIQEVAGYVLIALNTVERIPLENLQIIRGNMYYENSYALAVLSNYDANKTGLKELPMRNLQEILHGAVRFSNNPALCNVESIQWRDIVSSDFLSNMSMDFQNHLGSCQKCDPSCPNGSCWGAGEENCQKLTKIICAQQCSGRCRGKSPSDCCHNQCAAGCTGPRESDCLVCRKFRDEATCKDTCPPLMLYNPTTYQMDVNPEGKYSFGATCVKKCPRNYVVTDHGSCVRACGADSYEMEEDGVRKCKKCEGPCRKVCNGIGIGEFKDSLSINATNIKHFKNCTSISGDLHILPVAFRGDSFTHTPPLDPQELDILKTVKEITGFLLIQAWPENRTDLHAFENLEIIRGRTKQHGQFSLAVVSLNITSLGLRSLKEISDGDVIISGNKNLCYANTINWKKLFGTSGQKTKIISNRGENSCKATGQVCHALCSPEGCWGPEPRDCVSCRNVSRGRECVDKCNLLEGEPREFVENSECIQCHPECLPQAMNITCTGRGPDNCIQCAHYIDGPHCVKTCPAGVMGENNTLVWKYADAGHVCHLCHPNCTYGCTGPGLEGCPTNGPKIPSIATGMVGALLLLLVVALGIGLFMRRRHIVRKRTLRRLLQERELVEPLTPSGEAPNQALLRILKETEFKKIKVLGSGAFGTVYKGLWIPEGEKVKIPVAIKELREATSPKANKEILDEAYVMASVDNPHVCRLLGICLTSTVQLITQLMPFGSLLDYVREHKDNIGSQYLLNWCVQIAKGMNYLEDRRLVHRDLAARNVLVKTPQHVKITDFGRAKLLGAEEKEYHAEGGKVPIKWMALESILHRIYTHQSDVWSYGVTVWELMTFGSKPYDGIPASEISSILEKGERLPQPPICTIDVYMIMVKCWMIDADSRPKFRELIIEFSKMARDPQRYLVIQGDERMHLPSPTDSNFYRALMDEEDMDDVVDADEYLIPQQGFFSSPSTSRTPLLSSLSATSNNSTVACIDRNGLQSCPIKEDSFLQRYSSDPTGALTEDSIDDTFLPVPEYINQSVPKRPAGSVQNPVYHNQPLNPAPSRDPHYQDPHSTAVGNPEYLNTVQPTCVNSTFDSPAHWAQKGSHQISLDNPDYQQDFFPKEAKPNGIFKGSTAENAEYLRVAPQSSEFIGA
- ASSAY_EXPLANATION: Cell degradation of EGFR, HTRF assay, H1975-clone#8 (L858R/C797S) cells
- Type: cell-based
- RECORDED_CONDITIONS: 16 h treatment, maximum percentage of degradation
Write the answer as a number in %, unit excluded.

Below are worked cases with known answers.
COC[C@@H]1CN(c2cc3c(cc2C)N/C2=N\C(=O)c4cc(C)nc(c4)-c4cnn(C)c4OC[C@H]4CC[C@H](C4)CN23)CCN1C1CCN(c2cc(F)c([C@H]3CCC(=O)NC3=O)c(F)c2)CC1 [Example 96]    82.7
Cc1cc2cc(n1)-c1cnn(C)c1OC[C@H]1CCC(C1)CN1/C(=N/C2=O)Nc2ccc(N3CCN([C@H]4CCN(c5ccc(C6CCC(=O)NC6=O)nc5C)C[C@@H]4F)CC3)cc21 (stereo partly shown) [Example 76]    79.4
Cc1cc2cc(n1)-c1c(C(F)F)nn(C)c1OC[C@H]1CCC(C1)CN1/C(=N/C2=O)Nc2ccc(N3CCN(C4CCN(c5c(F)cc(NC6CCC(=O)NC6=O)cc5F)CC4)CC3)cc21 (stereo partly shown) [Example 99]    85.6
Cc1cc2cc(n1)-c1c(C)nn(C)c1OC[C@H]1CC[C@H](C1)CN1/C(=N/C2=O)Nc2ccc(N3CCN(C4CCN(c5cc(F)c([C@H]6CCC(=O)NC6=O)c(F)c5)CC4)[C@@H](CC#N)C3)cc21 [Example 163]    82.5
Cc1cc2cc(n1)-c1cnn(C)c1OC[C@H]1CCC(C1)CN1/C(=N/C2=O)Nc2ccc(N3CCC4(CC3)CN(C3CCN(c5cc(F)c([C@H]6CCC(=O)NC6=O)c(F)c5)CC3)C4)cc21 [Example 120]    65.7

Req: Notebook: pull reported Dmax for EGFR-L858R/C797S (H1975-clone #8 cells) (Homo sapiens, UniProt P00533, C797S/L858R), entry Cc1cc2cc(n1)-c1c(C)nn(C)c1OC[C@H]1CC[C@H](C1)CN1/C(=N/C2=O)Nc2ccc(N3CCN(C[C@@H]4CCN(c5cc(F)c([C@H]6CCC(=O)NC6=O)c(F)c5)C4)CC3)cc21 [Example 184]
Resp: 89.3

Req: Notebook: pull reported Dmax for EGFR-L858R/C797S (H1975-clone #8 cells) (Homo sapiens, UniProt P00533, C797S/L858R), entry Cc1cc2cc(n1)-c1cnn(C)c1OC[C@H]1CCC(C1)CN1/C(=N/C2=O)Nc2ccc(N3CCN(C4CCN(c5cc(F)c([C@H]6CCC(=O)NC6=O)c(F)c5)CC4)C[C@@H]3CO)cc21 [Example 94]
Resp: 73.9

* * *

- SYSTEM_UNDER_TEST: EGFR L858R (BaF3-L858R cells) (Homo sapiens, UniProt P00533, L858R)
- Construct: host or cells: BaF3
- Sequence (P00533 25-1210 L858R): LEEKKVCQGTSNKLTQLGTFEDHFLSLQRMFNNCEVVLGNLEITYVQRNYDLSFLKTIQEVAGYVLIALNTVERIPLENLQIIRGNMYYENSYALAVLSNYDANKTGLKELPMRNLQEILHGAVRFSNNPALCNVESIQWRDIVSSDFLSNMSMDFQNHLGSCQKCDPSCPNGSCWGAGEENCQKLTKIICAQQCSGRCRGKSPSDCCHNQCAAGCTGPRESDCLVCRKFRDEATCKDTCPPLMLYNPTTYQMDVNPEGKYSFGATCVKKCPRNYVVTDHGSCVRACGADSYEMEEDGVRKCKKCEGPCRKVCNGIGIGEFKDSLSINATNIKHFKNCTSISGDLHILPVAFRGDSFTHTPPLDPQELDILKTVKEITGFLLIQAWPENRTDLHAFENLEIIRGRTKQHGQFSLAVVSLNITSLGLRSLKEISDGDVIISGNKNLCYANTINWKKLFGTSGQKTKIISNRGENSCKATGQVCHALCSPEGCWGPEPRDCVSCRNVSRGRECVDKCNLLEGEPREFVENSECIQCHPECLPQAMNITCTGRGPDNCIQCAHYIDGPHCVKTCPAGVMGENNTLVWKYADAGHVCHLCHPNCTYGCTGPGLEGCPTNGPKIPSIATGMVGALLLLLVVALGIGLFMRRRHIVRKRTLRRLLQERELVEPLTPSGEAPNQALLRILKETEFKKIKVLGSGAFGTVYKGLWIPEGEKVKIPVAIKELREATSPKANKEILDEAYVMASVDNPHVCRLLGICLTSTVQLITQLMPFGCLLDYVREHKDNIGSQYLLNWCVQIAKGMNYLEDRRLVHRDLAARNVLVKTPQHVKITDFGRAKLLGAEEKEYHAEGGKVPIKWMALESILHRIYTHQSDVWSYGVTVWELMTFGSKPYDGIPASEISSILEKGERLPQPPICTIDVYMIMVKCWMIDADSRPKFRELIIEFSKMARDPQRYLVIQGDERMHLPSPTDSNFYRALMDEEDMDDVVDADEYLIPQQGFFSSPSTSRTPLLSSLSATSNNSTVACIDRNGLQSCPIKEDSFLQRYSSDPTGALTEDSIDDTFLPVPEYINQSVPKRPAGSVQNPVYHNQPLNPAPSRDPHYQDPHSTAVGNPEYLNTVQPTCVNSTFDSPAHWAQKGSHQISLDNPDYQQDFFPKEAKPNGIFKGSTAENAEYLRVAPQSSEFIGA
- ASSAY_EXPLANATION: Cell degradation of EGFR, HTRF assay, BaF3-L858R cells
- Assay type: cell-based
- RECORDED_CONDITIONS: 16 h treatment, EGFR degradation
ENDPOINT_LABEL: DC50 (nM)
Write the answer as a number in nM, unit excluded.

COC[C@H]1CN(c2ccc3c(c2)N2C[C@@H]4CC[C@H](COc5c(cnn5C)-c5cc(cc(C)n5)C(=O)/N=C/2N3)C4)CCN1C1CN(C2CCN(c3cc(F)c([C@H]4CCC(=O)NC4=O)c(F)c3)CC2)C1    0.67
Cc1cc2cc(n1)-c1cnn(C)c1OC[C@H]1CCC(C1)CN1/C(=N/C2=O)Nc2ccc(N3CCN(C4CCN(c5ccc(OC6CCC(=O)NC6=O)cc5F)CC4)CC3)cc21 (stereo partly drawn)    16.4
COC[C@@H]1CN(c2ccc3c(c2)N2CC4CC[C@H](COc5c(cnn5C)-c5cc(cc(C)n5)C(=O)/N=C/2N3)C4)CCN1CC1CN(c2cc(F)c([C@H]3CCC(=O)NC3=O)c(F)c2)C1    2.74
COC[C@H]1CN(c2ccc3c(c2)N2C[C@@H]4CC[C@H](COc5c(c(C)nn5C)-c5cc(cc(C)n5)C(=O)/N=C/2N3)C4)CCN1C1CN(C2CCN(c3cc(F)c([C@H]4CCC(=O)NC4=O)c(F)c3)CC2)C1    1.1
COC[C@@H]1CN(c2ccc3c(c2)N2CC4CC[C@H](COc5c(c(C(F)F)nn5C)-c5cc(cc(C)n5)C(=O)/N=C/2N3)C4)CCN1C1CCN(c2cc(F)c([C@H]3CCC(=O)NC3=O)c(F)c2)CC1    4.23
Cc1cc2cc(n1)-c1c(C)nn(C)c1OC[C@H]1CC[C@H](C1)CN1/C(=N/C2=O)Nc2ccc(N3CCN(C4CCN(c5cc(F)c([C@H]6CCC(=O)NC6=O)c(F)c5)CC4)[C@H](C)C3)cc21    2.42
Cc1cc2cc(n1)-c1c(C(F)F)nn(C)c1OC[C@H]1CCC(C1)CN1/C(=N/C2=O)Nc2ccc(N3CCN(C4CCN(c5c(F)cc(NC6CCC(=O)NC6=O)cc5F)CC4)CC3)cc21 (stereo partly drawn)    1.06
Cc1cc2cc(n1)-c1c(C)nn(C)c1OC[C@H]1CC[C@H](C1)CN1/C(=N/C2=O)Nc2ccc(N3CCC(CN(C)C4CCN(c5cc(F)c([C@H]6CCC(=O)NC6=O)c(F)c5)CC4)CC3)cc21    3.61

Query compound follows.
Req: Query: DC50; subject: COC[C@H]1CN(c2ccc3c(c2)N2CC4CC[C@H](COc5c(c(C)nn5C)-c5cc(cc(C)n5)C(=O)/N=C/2N3)C4)CCN1C1CCN(c2cc(F)c(C3CCC(=O)NC3=O)nc2C)CC1 (stereo partly drawn)
Resp: 3.21
